Property: Selectivity for inhibition of hMMP12 over: hMMP9; scope: individual compounds
test system: human MMP9 catalytic domain; assay: Isolated enzyme assay MMP9 (fluorogenic substrate); format: biochemical; details: IC50 (MMP9) divided by IC50 (MMP12)
Where a name gives a salt, the structure may show the parent alone.
Experimental readout: Selectivity for inhibition of hMMP12 over: hMMP9

{"Compound": "CCc1ncc(Oc2ccc(CN(C)S(=O)(=O)C[C@@]3(C4CC4)NC(=O)NC3=O)cc2)cn1", "Value prefix": "=", "Numeric readout": 523}
{"Compound": "CN(Cc1ccc(Oc2cnc(C(F)(F)F)nc2)cc1)S(=O)(=O)C[C@@]1(C2CC2)NC(=O)NC1=O", "Value prefix": ">", "Numeric readout": 795}
{"Compound": "O=C1NC(=O)[C@](CS(=O)(=O)NCc2ccc(Oc3cnc(C(F)(F)F)nc3)cc2)(C2CC2)N1", "Value prefix": "=", "Numeric readout": 1530}
{"Compound": "Cc1ncc(Oc2ccc(CN(C)S(=O)(=O)C[C@@]3(C4CC4)NC(=O)NC3=O)cc2)cn1", "Value prefix": "=", "Numeric readout": 857}
{"Compound": "CN(Cc1ccc(Oc2cnc(C3CC3)nc2)cc1)S(=O)(=O)C[C@@]1(C2CC2)NC(=O)NC1=O", "Value prefix": "=", "Numeric readout": 1440}
{"Compound": "CN(Cc1ccc(Oc2cncnc2)cc1)S(=O)(=O)C[C@@]1(C2CC2)NC(=O)NC1=O [Example 1, trifluoroacetic acid salt]", "Value prefix": ">", "Numeric readout": 525}
{"Compound": "C[C@]1(CS(=O)(=O)NCc2ccc(Oc3ccccc3)cc2)NC(=O)NC1=O [reference compound]", "Value prefix": "=", "Numeric readout": 261}
